target: recombinant human GALK1 (Homo sapiens, UniProt P51570); experiment: hGALK1 biochemical activity assay (Kinase-Glo Plus, ATP depletion); details: Tables 2-15; 35 μM ATP, 100 μM galactose, 1 h; bracketed figure after some values (e.g. −1.2) is undefined and not reported; read-out: hGALK IC50
Sequence (P51570 whole entry): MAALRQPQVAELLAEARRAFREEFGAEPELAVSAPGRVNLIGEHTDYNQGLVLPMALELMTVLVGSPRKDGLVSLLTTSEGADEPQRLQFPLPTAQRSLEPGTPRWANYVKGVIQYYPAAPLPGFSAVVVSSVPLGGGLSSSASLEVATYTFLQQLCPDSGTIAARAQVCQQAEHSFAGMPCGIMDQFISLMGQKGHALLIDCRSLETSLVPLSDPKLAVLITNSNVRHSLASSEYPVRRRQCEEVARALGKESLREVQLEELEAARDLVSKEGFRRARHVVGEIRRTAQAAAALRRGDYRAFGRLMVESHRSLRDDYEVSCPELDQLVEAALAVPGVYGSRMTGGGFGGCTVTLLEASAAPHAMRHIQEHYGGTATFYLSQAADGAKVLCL
Reported Metric: IC50 (µM)

CC1=C(C(=O)Nc2cc(C(=O)O)ccn2)[C@@H](c2ccc(C)cc2Cl)N=C(Nc2nc3cccc(N)c3o2)N1 :: 3.43
COC(=O)c1cc(NC(=O)C2=C(C)NC(Nc3nc4ccccc4o3)=NC2c2ccccc2Cl)ccn1 (centres unmarked) :: 7.69
CC1=C(C(=O)Nc2nnc(C(F)(F)F)s2)C(c2ccccc2Cl)N=C(Nc2nc3ccccc3o2)N1 (centres unmarked) :: 12.2
CC1=C(C(=O)NCc2cn(C)cn2)C(c2ccccc2Cl)N=C(Nc2nc3ccccc3o2)N1 (racemic) :: 1.09
COc1ccc([C@@H]2N=C(Nc3nc4ccc(F)cc4o3)NC(C)=C2C(=O)Nc2cc(C(=O)O)ccn2)c(Cl)c1 :: 0.25

1. CC1=C(C(=O)Nc2ccc(Br)cc2)C(c2ccccc2Cl)N=C(Nc2nc3ccccc3o2)N1 (centres unmarked)
2. CCn1cc(CNC(=O)C2=C(C)NC(Nc3nc4ccc(F)c(N)c4o3)=NC2c2ccc(C)cc2Cl)cn1 (racemic)
3. CC1=C(C(=O)Nc2cc(C(=O)O)ccn2)[C@@H](c2ccccc2Cl)N=C(Nc2nc3cccc(N)c3o2)N1
q: In this exercise, place the 3 compounds in ascending sequence of their recorded IC50. Sort the labels as requested; that list is your answer.
a: 2, 3, 1
